Test system: SNB-19 CNS
procedureDetails: NCI tumour cell line growth inhibition, 48 h
Answer each item with its documented TGI.

# input Which TGI is reported for this compound? C[C@H]1CN[C@@H]2[C@@H](C)[C@H]3[C@@H](C[C@H]4[C@@H]5CC[C@H]6C[C@@H](N)CC[C@]6(C)[C@H]5CC[C@]34C)O[C@@]2(O)C1
# output 6.96 µM

# input Which TGI is reported for this compound? C=C(Nc1nc2ccc(C)cc2s1)C(=O)C(CC)C(=O)C(CC)CC1C(=O)NC(=O)NC1=O (centres undefined)
# output > 100 µM

# input Which TGI is reported for this compound? O=c1[nH]c2ccc(O)cc2o1
# output > 100 µM

# input Which TGI is reported for this compound? C[C@H]1C(=O)O[C@@H]2CCN3CC=C(COC(=O)[C@](C)(O)[C@@]1(C)O)[C@H]23
# output > 100 µM

# input Which TGI is reported for this compound? C=C1C(=O)OC2CC(C)C(C(O)CC(C)O)=CCC12 (centres undefined)
# output > 100 µM

# input Which TGI is reported for this compound? CC(C)C(C/C=C1\CC(CO)(COC(=O)C(C)(C)C)OC1=O)C(C)C (centres undefined)
# output 26 µM

# input Which TGI is reported for this compound? COc1ccc(N=NC(=O)NC(CC(C)C)C(=O)NC(C)C(=O)O)cc1 (centres undefined)
# output > 100 µM

# input Which TGI is reported for this compound? CNCCCn1c2ccccc2c2c3c(c(-c4ccsc4)cc21)C(=O)NC3=O
# output 3.06 µM

# input Which TGI is reported for this compound? O=C(Nc1cc(C(F)(F)F)ccc1Cl)c1cccc(NC2=C(Cl)C(=O)N(Cc3ccccc3)C2=O)c1
# output > 100 µM
